Molecular target: human MC4R (Homo sapiens, UniProt P32245)
Construct: host or cells: HEK-293 cells stably expressing the GScAMP22F split-luciferase cAMP sensor and hMC4R, G418 selection
Sequence (P32245 whole entry): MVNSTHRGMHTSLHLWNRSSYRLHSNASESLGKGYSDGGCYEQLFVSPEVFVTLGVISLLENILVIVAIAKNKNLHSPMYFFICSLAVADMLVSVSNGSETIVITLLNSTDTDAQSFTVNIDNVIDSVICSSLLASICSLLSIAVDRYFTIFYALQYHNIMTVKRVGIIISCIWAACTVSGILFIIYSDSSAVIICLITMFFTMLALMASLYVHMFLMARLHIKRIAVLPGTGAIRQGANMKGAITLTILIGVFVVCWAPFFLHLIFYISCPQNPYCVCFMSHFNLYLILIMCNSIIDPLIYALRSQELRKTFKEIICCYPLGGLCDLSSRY
Experiment: split-luciferase cAMP sensor assay, agonist mode (measurement window 1), hMC4R
Type: cell-based
Conditions: agonist mode, hMC4R stable cell line; read-out: MC4R cAMP EC50
Method: The stable cell lines were grown and maintained in selection media consisting of Dulbecco's modified Eagle media (DMEM) with 4.5 g/l D-glucose, and 4 mM L-glutamine (Thermo Fisher Scientific, Waltham, MA), supplemented with 10% fetal bovine serum, 100 units/ml penicillin, 100 μg/ml streptomycin, 2.5 μg/ml amphotericin B, 200 μg/ml hygromycin B (for positive selection of the GScAMP22f luciferase reporter), and Geneticin™ (G418) 700 μg/ml (for MC3R or MC4R selection). […]
Positions of bridges follow the written chain, without caps; N, C: chain ends. Non-standard residues stand in square brackets, D forms with d. Residues, ends and D or L forms follow the SMILES beside them. dPhe(4-Br) = N[C@H](Cc1ccc(Br)cc1)C(=O)O; Nle = CCCC[C@H](N)C(=O)O
RECORDED METRIC: pEC50
// scale note: pEC50 = -log10(conc_M); give the bare number

Q. Looking for the measured pEC50 of CCCC[C@H](NC(=O)[C@H](CCCNC(=N)N)NC(C)=O)C(=O)N[C@H]1CSSC[C@@H](C(N)=O)NC(=O)[C@@H](Cc2c[nH]c3ccccc23)NC(=O)[C@H](CCCNC(=N)N)NC(=O)[C@@H](Cc2ccc(Br)cc2)NC(=O)[C@H](Cc2c[nH]cn2)NC1=O [CTX-1231] (Ac-R[Nle]CH[dPhe(4-Br)]R[dW]C-NH2; disulfide 3-8 (inferred)) , can you help?
A. 8.64

* * *

Target: human MC4R (Homo sapiens)
Construct: host or cells: HEK-293 cells stably expressing the GScAMP22F split-luciferase cAMP sensor and hMC4R, G418 selection
Assay: split-luciferase cAMP sensor assay, agonist mode (measurement window 1), hMC4R
Type: cell-based
Positions of bridges follow the written chain, without caps; N, C: chain ends. Non-standard residues stand in square brackets, D forms with d. Residues, ends and D or L forms follow the SMILES beside them. dPhe(4-Br) = N[C@H](Cc1ccc(Br)cc1)C(=O)O; dPhe(4-F) = N[C@H](Cc1ccc(F)cc1)C(=O)O; Nle = CCCC[C@H](N)C(=O)O
# key: entry, value: MC4R selectivity vs MC3R
Just the number, please, no unit after it.

CC(=O)N[C@@H](CCCNC(=N)N)C(=O)N[C@H]1CSSC[C@@H](C(N)=O)NC(=O)[C@@H](Cc2ccccc2)NC(=O)[C@H](CCCNC(=N)N)NC(=O)[C@@H](Cc2ccc(Br)cc2)NC(=O)[C@H](CCCNC(=N)N)NC(=O)[C@@H](C)NC1=O [CTX-1255] (Ac-RC[dA]R[dPhe(4-Br)]R[dF]C-NH2; disulfide 2-8 (inferred)) | 0.24
CCCC[C@H](NC(=O)[C@H](CCCNC(=N)N)NC(C)=O)C(=O)N[C@H]1CSSC[C@@H](C(N)=O)NC(=O)[C@@H](Cc2c[nH]c3ccccc23)NC(=O)[C@H](CCCNC(=N)N)NC(=O)[C@@H](Cc2ccc(Br)cc2)NC(=O)[C@H](Cc2c[nH]cn2)NC1=O [CTX-1231] (Ac-R[Nle]CH[dPhe(4-Br)]R[dW]C-NH2; disulfide 3-8 (inferred)) | 3.04

From here, focus on the item given below.
Q. Looking for the measured MC4R selectivity vs MC3R of CC(=O)N[C@@H](CCCNC(=N)N)C(=O)N[C@H]1CSSC[C@@H](C(N)=O)NC(=O)[C@@H](Cc2c[nH]c3ccccc23)NC(=O)[C@H](CCCNC(=N)N)NC(=O)[C@@H](Cc2ccc(F)cc2)NC(=O)[C@H](CCCNC(=N)N)NC(=O)[C@@H](C)NC1=O [CTX-1236] (Ac-RC[dA]R[dPhe(4-F)]R[dW]C-NH2; disulfide 2-8) , can you help?
A. 1.36

* * *

Test: Pharmacokinetics: plasma and brain concentration after IP injection
Format: in vivo, mouse
Details: female, CD-1, mouse; mice, IP 15 mg/kg, 0.5 h, plasma, mean of 3
Positions of bridges follow the written chain, without caps; N, C: chain ends. Non-standard residues stand in square brackets, D forms with d. Residues, ends and D or L forms follow the SMILES beside them. Nle = CCCC[C@H](N)C(=O)O
# key: entry, value: level at 0.5 h
The figure you give is taken to be in ng/mL; do not add the unit.

CC(=O)N[C@@H](CCCN=C(N)N)C(=O)N[C@H]1CSSC[C@H](C(N)=O)NC(=O)[C@H](Cc2c[nH]c3ccccc23)NC(=O)C(CCCN=C(N)N)NC(=O)[C@@H](Cc2ccccc2)NC(=O)[C@H](Cc2cnc[nH]2)NC(=O)[C@@H](C)NC1=O (some centres unmarked) [CTX-1200, reference compound] | 43300

Q. Looking for the measured level at 0.5 h of CCCC[C@H](NC(=O)[C@H](CCCNC(=N)N)NC(C)=O)C(=O)N[C@H]1CSSC[C@@H](C(N)=O)NC(=O)[C@H](Cc2c[nH]c3ccccc23)NC(=O)[C@H](CCCNC(=N)N)NC(=O)[C@@H](Cc2ccccc2)NC(=O)[C@H](Cc2c[nH]cn2)NC1=O [CTX-1227, Arg-Nle-cyclo(Cys-His-D-Phe-Arg-Trp-Cys)] (Ac-R[Nle]CH[dF]RWC-NH2; disulfide 3-8 (inferred)) , can you help?
A. 38200
